Source listed as patent US9765037B2.

# Method summary: in vivo
# Test parameters: mouse, ip, 10 mg/kg
Attribute measured: AUC (µM·h)
Report the value in µM·h with no unit label.

// sample CCOc1ccc2cc(-c3nn(CC4CCNCC4)c4ncnc(N)c34)ccc2c1 [Compound 29] , its AUC was 3.18

---

# Tested target: PfCDPK1 (Plasmodium falciparum (isolate 3D7), UniProt P62344)
# Method summary: biochemical
Listing of recorded pEC50 by entry.
pEC50 here: minus log base 10 of the concentration, concentration in moles per litre.

These solved cases illustrate the format of a correct answer.
>>> value_observed("CC(C)n1nc(-c2cc3ccccc3[nH]2)c2c(N)ncnc21 [Compound 24]")
6.33
>>> value_observed("Nc1ncnc2c1c(-c1ccc3nccnc3c1)nn2CC1CCNCC1 [Compound 122]")
6.32
>>> value_observed("CC(C)n1nc(-c2ccc3cc(OC(=O)c4cccc(Cl)c4)ccc3c2)c2c(N)ncnc21 [Compound 85]")
6.64

// sample CCOc1ccc2cc(-c3nn(C(C)C)c4ncnc(N)c34)ccc2c1 [Compound 7r] , its pEC50 was 5.89

// sample Nc1ncnc2c1c(-c1ccc3ccccc3c1)nn2CC1CCNCC1 [Compound 147] , its pEC50 was 7.18

---

Listing of recorded Tmax by entry.
# Method summary: Blood levels after oral gavage dosing of mice (LC-MS)
# Test parameters: mouse, in vivo, po
Report the value in h with no unit label.

// sample "CCCCOc1ccc2cc(-c3nn(C(C)C)c4ncnc(N)c34)ccc2c1" , its Tmax was 2.67

// sample "C=CCOc1ccc2cc(-c3nn(C(C)C)c4ncnc(N)c34)ccc2c1" , its Tmax was 1.67

// sample "CC(C)COc1ccc2cc(-c3nn(CC4CCNCC4)c4ncnc(N)c34)ccc2c1" , its Tmax was 3

// sample "C=CCOc1ccc2cc(-c3nn(CC4CCNCC4)c4ncnc(N)c34)ccc2c1" , its Tmax was 3.67

// sample "CCOc1ccc2cc(-c3nc(C(C)C)n4ccnc(N)c34)ccc2c1" , its Tmax was 2.5

---

# Method summary: Blood levels after oral gavage dosing of mice (LC-MS)
# Test parameters: mouse, in vivo, po, 50 mg/kg
Attribute measured: Cmax (nM)
Report the value in nM with no unit label.

// sample CCOc1ccc2cc(-c3nn(CC4CCNCC4)c4ncnc(N)c34)ccc2c1 [Compound 29] , its Cmax was 1100

---

# Tested target: PfCDPK1 (Plasmodium falciparum (isolate 3D7))
# Method summary: biochemical
Attribute measured: pEC50
pEC50 here: minus log base 10 of the concentration, concentration in moles per litre.

These solved cases illustrate the format of a correct answer.
>>> value_observed("COc1ccc2cc(-c3nc(C(C)(C)C)n4ccnc(N)c34)ccc2c1")
7.17
>>> value_observed("CC(C)(C)n1nc(-c2ccc(-c3nn(C(C)(C)C)c4ncnc(N)c34)cc2)c2c(N)ncnc21")
5.83
>>> value_observed("Nc1ncnc2c1c(-c1ccc3ncccc3c1)nn2CC1CCNCC1")
5.96

The measured pEC50 that "CCOc1ccc2cc(-c3nn(CC4CCNCC4)c4ncnc(N)c34)ccc2c1" showed for PfCDPK1 (Plasmodium falciparum (isolate 3D7)) is 6.45

---

# Method summary: in vivo
# Test parameters: mouse, ip, 10 mg/kg
Attribute measured: Cmax (nM)
Report the value in nM with no unit label.

// sample "CCOc1ccc2cc(-c3nn(CC4CCNCC4)c4ncnc(N)c34)ccc2c1" , its Cmax was 700

---

# System: human fibroblast
# Method summary: Human fibroblast replication / cytotoxicity (Alamar blue)
# Format: cell-based
Attribute measured: Observed HFF Toxicity (T at concentration)

>>> value_observed("C=CCOc1ccc2cc(-c3nn(CC4CCNCC4)c4ncnc(N)c34)ccc2c1")
"T at 100 μM"
>>> value_observed("CC(C)n1nc(-c2ccc3cc(OCc4ccccc4)ccc3c2)c2c(N)ncnc21")
"T at 100 μM"
>>> value_observed("Nc1ncnc2c1c(-c1ccc3cc(OCc4ccccc4Cl)ccc3c1)nn2CC1CCNCC1")
"T at 100 μM"
>>> value_observed("CC(C)COc1ccc2cc(-c3nn(CC4CCNCC4)c4ncnc(N)c34)ccc2c1")
"T at 100 μM"
>>> value_observed("Nc1ncnc2c1c(-c1ccc3oc(-c4ccccc4)nc3c1)nn2CC1CCNCC1")
"T at 25 μM"
>>> value_observed("Nc1ncnc2c1c(-c1ccc3cc(OCc4cccc(Cl)c4)ccc3c1)nn2CC1CCNCC1")
"T at 100 μM"
>>> value_observed("C=CCOc1ccc2cc(-c3nn(C(C)C)c4ncnc(N)c34)ccc2c1")
"T at 100 μM"
>>> value_observed("CCOc1ccc2cc(-c3nn(CC4CCN(C)CC4)c4ncnc(N)c34)ccc2c1")
"T at 25 μM"

Here is the next item to consider.
// sample "CCCCOc1ccc2cc(-c3nn(C(C)C)c4ncnc(N)c34)ccc2c1" , its Observed HFF Toxicity (T at concentration) was T at 100 μM

---

# Tested target: PfCDPK4 (Plasmodium falciparum (isolate 3D7), UniProt Q8IBS5)
# Method summary: biochemical
EC50 under 0.4 µM gets TRUE, anything at or over 0.4 µM gets FALSE.

>>> category("CCOc1ccc2cc(-c3nn(C(C)C)c4ncnc(N)c34)ccc2c1")
"FALSE"
>>> category("C=CCOc1ccc2cc(-c3nn(CC4CCNCC4)c4ncnc(N)c34)ccc2c1")
"TRUE"

Query: Could you please tell me whether EC50 recorded for "CC(C)n1nc(-c2ccc3cc(OC(=O)c4cccc(Cl)c4)ccc3c2)c2c(N)ncnc21" is less than 0.4 µM?
Result: FALSE

Query: Could you please tell me whether EC50 recorded for "CC(C)(C)n1nc(-c2ccc(NC(=O)c3ccccc3)cc2)c2c(N)ncnc21" is less than 0.4 µM?
Result: FALSE

Query: Could you please tell me whether EC50 recorded for "CC(C)(C)n1nc(-c2ccc(NC(=O)C3CCCC3)cc2)c2c(N)ncnc21" is less than 0.4 µM?
Result: TRUE

Query: Could you please tell me whether EC50 recorded for CC(Oc1ccc2cc(-c3nn(C(C)C)c4ncnc(N)c34)ccc2c1)c1ccccc1 (centres unmarked) is less than 0.4 µM?
Result: FALSE

---

# Method summary: Solubility in buffers of various pH
# Type: physicochemical
# Test parameters: buffer, pH 7.4, aqueous buffer; read-out: Experimental Solubility pH 7.4
Listing of recorded solubility by entry.
// return the numeric value with its unit appended

>>> value_observed("COc1ccc2cc(-c3nn(CC4CCNCC4)c4ncnc(N)c34)ccc2c1 [Compound 28]")
"56 µM"
>>> value_observed("CC(C)(C)n1nc(-c2ccc3ccccc3c2)c2c(N)ncnc21 [Compound 2]")
"1.5 µM"
>>> value_observed("CCOc1ccc2cc(-c3nn(CC4CCNCC4)c4ncnc(N)c34)ccc2c1 [Compound 29]")
"49 µM"

Here is the next item to consider.
// sample CC(C)COc1ccc2cc(-c3nn(CC4CCNCC4)c4ncnc(N)c34)ccc2c1 [Compound 44] , its solubility was 33 µM

---

Listing of recorded EC50 by entry.
# Tested target: PfCDPK1 (Plasmodium falciparum (isolate 3D7), UniProt P62344)
# Method summary: biochemical
Report the value in nM with no unit label.

These solved cases illustrate the format of a correct answer.
>>> value_observed("CC(C)n1nc(-c2ccc3c(c2)OCO3)c2c(N)ncnc21")
422
>>> value_observed("Nc1ncnc2c1c(-c1ccc(-c3ccccc3)cc1)nn2CC1CCNCC1")
74.9
>>> value_observed("CC(C)n1nc(-c2ccc3cc(OCc4ccc(Cl)cc4)ccc3c2)c2c(N)ncnc21")
1140

// sample "C=CCOc1ccc2cc(-c3nn(C(C)C)c4ncnc(N)c34)ccc2c1" , its EC50 was 36.3

// sample "Cn1ncc2cc(-c3nn(CC4CCNCC4)c4ncnc(N)c34)ccc21" , its EC50 was 702

// sample "Nc1ncnc2c1c(-c1ccc3cc(OCc4ccc(Cl)cc4)ccc3c1)nn2CC1CCNCC1" , its EC50 was 21.1

// sample "CC(C)(C)c1nc(-c2cnc3ccccc3c2)c2c(N)nccn12" , its EC50 was 948

// sample "CCCOc1ccc2cc(-c3nn(CC4CCNCC4)c4ncnc(N)c34)ccc2c1" , its EC50 was 196

// sample "Cn1ccc2cc(-c3nn(CC4CCNCC4)c4ncnc(N)c34)ccc21" , its EC50 was 705

---

# Tested target: TgCDPK1 (Toxoplasma gondii)
# Sequence (Q9BJF5 1-507): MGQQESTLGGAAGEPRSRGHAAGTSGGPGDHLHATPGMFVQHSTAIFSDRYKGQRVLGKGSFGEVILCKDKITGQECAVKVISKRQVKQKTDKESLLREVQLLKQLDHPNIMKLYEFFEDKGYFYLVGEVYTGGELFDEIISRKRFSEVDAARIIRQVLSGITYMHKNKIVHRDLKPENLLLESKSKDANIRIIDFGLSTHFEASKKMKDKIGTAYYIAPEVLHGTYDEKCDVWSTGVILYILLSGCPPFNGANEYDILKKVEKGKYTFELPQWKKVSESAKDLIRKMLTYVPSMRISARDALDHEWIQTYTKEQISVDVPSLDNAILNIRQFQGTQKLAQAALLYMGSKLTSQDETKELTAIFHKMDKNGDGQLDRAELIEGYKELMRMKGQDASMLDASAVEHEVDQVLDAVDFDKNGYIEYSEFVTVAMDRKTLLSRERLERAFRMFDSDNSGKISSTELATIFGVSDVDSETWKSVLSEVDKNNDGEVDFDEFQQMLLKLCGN
# Format: biochemical
# Test parameters: read-out: TgCDPK1 IC50
Attribute measured: pIC50
pIC50 here: minus log base 10 of the concentration, concentration in moles per litre.

These solved cases illustrate the format of a correct answer.
>>> value_observed("COc1cc2ccccc2cc1-c1nn(C(C)C)c2ncnc(N)c12")
6.05
>>> value_observed("Nc1ncnc2c1c(Cc1cccc3ccccc13)nn2CCC1CCNCC1")
7.28
>>> value_observed("COc1ccc(-c2nn(C(C)C)c3ncnc(N)c23)cc1OC")
7.43
>>> value_observed("Nc1ncnc2c1c(Cc1cccc3ccccc13)nn2C1CCCCC1")
6.00
>>> value_observed("COc1cc(-c2nn(C(C)C)c3ncnc(N)c23)cc(OC)c1OC")
6.38

// sample "Nc1ncnc2c1c(Cc1cccc3ccccc13)nn2C1CCNCC1" , its pIC50 was 7.23
